- method: Cytotoxicity, MTT assay
- Format: cell-based
- experimental.setup: human, HaCaT keratinocyte cells, across the concentration range (TANHCn series), read-out: cell viability
observable: viability at 24 h

Field viability at 24 h (entry CCCCCCCCCCNC(=O)C(CCCNC(=N)N)NC(=O)C(N)Cc1c[nH]c2ccccc12 (stereo not shown) ) reads ~80%

----------
- System: Candida parapsilosis ATCC 22019
- method: MIC broth microdilution
- Format: cell-based
- experimental.setup: Lodderomyces parapsilosis, ATCC22019; C. parapsilosis; value in parentheses; read-out: MIC
observable: MIC (µM)
Numeric only. Scale: µM

Field MIC (system: Candida parapsilosis ATCC 22019) for entry CCCCCCCCCCCCNC(=O)C(CCCNC(=N)N)NC(=O)C(N)Cc1c[nH]c2ccccc12 (stereo not shown) = 54

Entry CCCCCCCCNC(=O)C(CCCNC(=N)N)NC(=O)C(N)Cc1ccccc1 (stereo not shown) : MIC on Candida parapsilosis ATCC 22019 = 512

Assay Candida parapsilosis ATCC 22019, sample CCCCCCCCCCNC(=O)C(CCCNC(=N)N)NC(=O)C(N)Cc1c[nH]c2ccccc12 (stereo not shown) , MIC read: 112

Simply: CCCCCCCCCCCCNC(=O)C(CCCNC(=N)N)NC(=O)C(N)Cc1ccccc1 (stereo not shown) , Candida parapsilosis ATCC 22019, MIC = 56
